# GI50 listing for each entry below
# Test system: SF-295
# EXPERIMENTAL PROTOCOL: NCI tumour cell line growth inhibition, 48 h
The source made the active and inactive calls. Cut-off read from the data, not from the text of the source: active = GI50 up to about 1.1 µM and inactive = higher.

1) COc1cccc(/C=C(\NC(C)=O)c2nc3cc(Cl)ccc3[nH]2)c1 ... > 100 µM (inactive)
2) CC1(C)CC(N2CCN(C3CC(C)(C)NC(C)(C)C3)CC2)CC(C)(C)N1 ... > 100 µM (inactive)
3) CCCCCCNC(=O)c1cc(C#Cc2cc(OC)ccc2OC)ccc1OC ... 51.9 µM (inactive)
4) Nc1ccn([C@H]2CO[C@@H](CO)[C@@H]2O)c(=O)n1 ... > 100 µM (inactive)
5) CC(C)(C)c1cc(O)ccc1O ... > 100 µM (inactive)
6) COc1cc(/C=N/N=C(\N)NO)c(Cl)cc1O ... 96.2 µM (inactive)
7) Fc1cc(C2=C[C@H](c3ccc4c(c3)OCO4)NC(=S)N2)c(Cl)cc1Cl ... 31.9 µM (inactive)
8) Cc1cccc2c(N)c3cccc(C(=O)NCC[N+](C)(C)Cc4ccc(S(C)(=O)=O)cc4)c3nc12 ... 89.1 µM (inactive)
9) COc1cc(C2c3cc4c(cc3OC(NN)C2C)OCO4)cc(OC)c1O (stereo unspecified) ... 3.85 µM (inactive)
10) C=CC(C)CCC(C/C=C(\C)CCC=C(C)C)C(=C)CCCC(C)C (stereo unspecified) ... > 100 µM (inactive)

IN: I am curious: what GI50 value has been reported for O=Nc1c(-c2c(O)[nH]c3ccccc23)[nH]c2ccccc12 ?
OUT: 10.1 µM (inactive)

IN: If you can, please state the reported GI50 value of COc1ccc(NC(=S)c2ccc(CN3CCCCC3)s2)cc1 .
OUT: 18.3 µM (inactive)

IN: Consider the compound C1=C2/CC[C@H](Sc3ccccc3)C2C2(CCCCC/1)OCCO2 (stereo partly specified) and give its measured GI50.
OUT: 27.5 µM (inactive)
